target: Human full-length SHP2 recombinant protein (Homo sapiens (Human)); assay: Assay of full-length SHP2 phosphatase activity; details: DiFMUP substrate, with activating peptide
observed_property: IC50 (nM)

Observe how each entry below is paired with its result.
COCC#Cc1ccc2c(c1)[C@@H](N)C1(CCN(c3cc(=O)n(-c4ccc(C#N)c(OC)c4F)c(C)n3)CC1)C2 : 3
CCNC(=O)C#Cc1ccc2c(c1)[C@@H](N)C1(CCN(c3nc(N)c(Sc4ccnc(N)c4Cl)nc3C)CC1)C2 : 3
Cc1nc(Sc2ccnc(N)c2F)c(N)nc1N1CCC2(CC1)Cc1ccc(C#CC(N)=O)cc1[C@H]2N : 1
Cc1c(N2CCC3(CC2)Cc2ccc(C#CC(=O)N(C)C)cc2[C@H]3N)nc(C)n(-c2cccc(Cl)c2Cl)c1=O : 1

(A) C#Cc1ccc2c(c1)[C@@H](N)C1(CCN(c3cc(=O)n(-c4ccc(F)c(OC)c4F)c(C)n3)CC1)C2 (atropisomer, axis not shown) [Compound 88]
(B) C#Cc1ccc2c(c1)CC1(CCN(c3nc(N)c(Sc4ccnc(N)c4Cl)c(=O)n3C)CC1)[C@@H]2N
Req: Consider A and B . Which of these has its IC50 at a higher number? Indicate your choice by writing its label.
Resp: B
(B: 2 nM, A: 0.8 nM)

This collection of values is drawn from patent US20240140931A1.
